All figures here come from patent US20110002929A1.

subject_of_test: T1, human RANK-L (human, UniProt O14788 140-317, limits assumed)
T1 construct: Soluble protein, used coated, biotinylated or labelled in ELISA, AlphaScreen, FMAT and Biacore; also called hRANK-L; soluble human RANK-L
T1 sequence (looked up): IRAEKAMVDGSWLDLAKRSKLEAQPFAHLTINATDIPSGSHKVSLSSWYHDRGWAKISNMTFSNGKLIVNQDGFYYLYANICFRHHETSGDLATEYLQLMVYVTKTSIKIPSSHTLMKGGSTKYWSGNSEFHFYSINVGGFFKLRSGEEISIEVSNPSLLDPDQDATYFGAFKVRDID
run_description: AlphaScreen, biotin-hRANK-L / RANK-huFc beads
Entries and their measured pIC50 follow.
// pIC50: -log10(molar conc.)

Observe how each entry below is paired with its result.
pIC50 for RANKL18 (VHH, not shown: small tags and cut ends) VHH: EVQLVESGGGLVQAGGSLRLSCAASGRTFSRSAMGWFRQAPGKEREFVGFITGSGGTTYYGESVKGRFTISRDNAQNPVYLQMNSLKPEDTAVYYCGVYRRTYISSTYSESSEYDYWGQGTQVTVSS ?
9.73

pIC50 for RANKL6 (VHH, not shown: c-myc and His6 tags) VHH: EVQLVESGGGLMQTGGSLRLSCAASGVTYSYYTASWFRQAPGKEREFVAAISPSGNTYYADSVKGRFTISRDNGKHTMYLQMNSLNPEDTAVYFCAIRATDSIYYASSYRHWGQGTQVTVSS ?
9.11

pIC50 for RANKL15 (VHH, not shown: small tags and cut ends) VHH: EVQLVESGGGLVQAGGSLRLSCAAAGGTFRNYVMGWFRQAPGKEREFVTAISTGGSWTGYVDSVKDRFTISRDNTKNTVYLQMASLKPEDTAVYYCAATTPATTYLPRSERQYDYWGQGTQVTVSS ?
9.24

Please turn your attention to the following entry.
pIC50 for RANKL3 (VHH, not shown: small tags and cut ends) VHH: EVQLVESGGKLVQAGGSLRLSCAVSGRTSSIYNMAWFRQGPGKGRESVGRIYWSDDNTYYADSVKGRFTISRDNATNTVYLQMNSLKPEDTAVYYCAGKTTKWSLEYDYWGQGTQVTVSS ?
9.32
